Read-out: CYP2C9 (gene 1559)
PROCEDURE SUMMARY: LTEA_HepaRG_CYP2C9: Life Technologies and Expression Analysis (LTEA) Assay for CYP2C9 using HepaRG (AID 2283484)
TEST CONDITIONS: mRNA level, 48 h; actives raise or lower the signal
The source made the active and inactive calls. How the source made its calls: active means hit-call score of the fitted dose curve at least 0.9, where 1 is the maximum; inactive means score below 0.9.
Output constraint: value belongs to true (1) = active, false (0) = inactive

Check the results log: what was the call for "O=C(c1ccccc1)C1CCCCC1" ?
false (0)

Check the results log: what was the call for "CCOC(=O)c1ccc(O)cc1" ?
false (0)

Check the results log: what was the call for "N#CSCSc1nc2ccccc2s1" ?
true (1)

Check the results log: what was the call for "CCCN(CCC)C(=O)SCC" ?
false (0)

Check the results log: what was the call for "CSC(=O)c1cccc2nnsc12" ?
false (0)

Check the results log: what was the call for "CCN(CC)C(=O)c1cccc(C)c1" ?
true (1)

Check the results log: what was the call for "COC(=O)c1ccc(I)cc1S(=O)(=O)NC(=O)Nc1nc(C)nc(OC)n1" ?
false (0)

Check the results log: what was the call for "O=C(c1ccc(O)cc1O)c1ccc(O)cc1O" ?
false (0)

Check the results log: what was the call for "Oc1ccc(C(c2ccc(O)cc2)C(Cl)(Cl)Cl)cc1" ?
true (1)

Check the results log: what was the call for "CCN(Cc1c(F)cccc1Cl)c1c([N+](=O)[O-])cc(C(F)(F)F)cc1[N+](=O)[O-]" ?
false (0)

Check the results log: what was the call for "CCSC(=O)N(CC(C)C)CC(C)C" ?
false (0)

Check the results log: what was the call for "COC(=O)CSc1cc(N=c2sc(=O)n3n2CCCC3)c(F)cc1Cl" ?
false (0)

Check the results log: what was the call for CC1(C)C(C=C(Cl)Cl)C1C(=O)OCc1cccc(Oc2ccccc2)c1 (stereo not drawn) ?
false (0)

Check the results log: what was the call for "CC(=O)[C@H]1CC[C@H]2[C@@H]3CCC4=CC(=O)CC[C@]4(C)[C@H]3CC[C@]12C" ?
true (1)

Check the results log: what was the call for CCCCC(CC)CN1C(=O)C2C3C=CC(C3)C2C1=O (stereo not drawn) ?
true (1)

Check the results log: what was the call for "CCCCCOC(=O)COc1cc(N2C(=O)C3=C(CCCC3)C2=O)c(F)cc1Cl" ?
false (0)

Check the results log: what was the call for "O=C(O)C1(C(=O)Nc2ccc(Cl)cc2Cl)CC1" ?
true (1)

Check the results log: what was the call for "CCCCOC(=O)[C@@H](C)Oc1ccc(Oc2ccc(C(F)(F)F)cn2)cc1" ?
false (0)

Check the results log: what was the call for CCOC(=O)C(C)Oc1ccc(Oc2cnc3cc(Cl)ccc3n2)cc1 (stereo not drawn) ?
false (0)

Check the results log: what was the call for "CCNc1nc(N)nc(Cl)n1" ?
false (0)

Check the results log: what was the call for "CCCN(CCC)c1c([N+](=O)[O-])cc(C(F)(F)F)c(N)c1[N+](=O)[O-]" ?
false (0)

Check the results log: what was the call for "OB(O)O" ?
false (0)

Check the results log: what was the call for "CCCOC(=O)c1ccc(C(=O)OCCC)nc1" ?
false (0)

Check the results log: what was the call for CCCCC(CC)COC(=O)c1ccccc1C(=O)O (stereo not drawn) ?
false (0)

Check the results log: what was the call for CCCCOC(=O)C(C)Oc1ccc(Oc2ccc(C(F)(F)F)cn2)cc1 (stereo not drawn) ?
false (0)

Check the results log: what was the call for "COCCO" ?
false (0)

Check the results log: what was the call for "COc1c(Cl)ccc(Cl)c1C(=O)O" ?
false (0)

Check the results log: what was the call for "CCCOC(=O)NCCCN(C)C" ?
false (0)

###

PROCEDURE SUMMARY: CCTE_Mundy_HCI_Cortical_NOG_NeuriteLength: CCTE's Neurite Outgrowth Assay in rat cortical cells for Neurite Length, Mundy Lab (AID 2284213)
Calls of active or inactive are those of the source. The calls were made as follows: active = hit-call score of the fitted dose curve at least 0.9, where 1 is the maximum; inactive = score below 0.9.
Output constraint: value belongs to t = active, f = inactive

Check the results log: what was the call for "C#CCOC(=O)[C@@H](C)Oc1ccc(Oc2ncc(Cl)cc2F)cc1" ?
f

Check the results log: what was the call for CC1(C)C(C=C(Cl)Cl)C1C(=O)OCc1cccc(Oc2ccccc2)c1 (configuration not stated) ?
t

Check the results log: what was the call for "Cc1nn(C)c(Oc2ccccc2)c1C=NOCc1ccc(C(=O)OC(C)(C)C)cc1" ?
t

Check the results log: what was the call for "CCCN(CCC)C(=O)SCC" ?
f

Check the results log: what was the call for "O=C(O)c1ccccc1" ?
f

Check the results log: what was the call for "CC(C)(c1ccc(O)cc1)c1ccc(O)cc1" ?
f

Check the results log: what was the call for "CCN(CC)C(=O)c1cccc(C)c1" ?
f

###

MEASUREMENT TARGET: human Sirtuin 2 (SIRT2), SIRT2 (gene 22933) (UniProt Q8IXJ6)
Sequence (Q8IXJ6 whole entry, looked up): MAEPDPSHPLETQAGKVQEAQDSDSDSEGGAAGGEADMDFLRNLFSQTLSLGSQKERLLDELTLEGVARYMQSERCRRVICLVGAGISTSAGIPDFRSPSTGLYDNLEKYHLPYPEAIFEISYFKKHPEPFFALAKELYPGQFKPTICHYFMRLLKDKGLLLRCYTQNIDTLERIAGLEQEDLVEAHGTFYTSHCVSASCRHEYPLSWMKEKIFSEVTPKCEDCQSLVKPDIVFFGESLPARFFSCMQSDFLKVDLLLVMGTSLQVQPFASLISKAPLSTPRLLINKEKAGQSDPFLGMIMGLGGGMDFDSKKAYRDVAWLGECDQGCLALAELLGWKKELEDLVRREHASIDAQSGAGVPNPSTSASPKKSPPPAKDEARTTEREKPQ
PROCEDURE SUMMARY: NVS_ENZ_hSIRT2: NovaScreen (NVS) Enzymatic Assay for human Sirtuin 2 (SIRT2) (AID 2283217)
Records with an inconclusive call do not appear. Active and inactive are the calls of the source. Rule for the calls: active = hit-call score of the fitted dose curve at least 0.9, where 1 is the maximum; inconclusive = response in the unintended direction; inactive = score below 0.9.
READOUT: AC50

Here are 4 compounds together with their reported answers.
COMPOUND	AC50
Oc1ccc(C(c2ccc(O)cc2)C(Cl)(Cl)Cl)cc1	17 µM (active)
CC1(C)C(C=C(Cl)Cl)C1C(=O)OCc1cccc(Oc2ccccc2)c1 (stereo not given)	inactive
C=CCOC(Cn1ccnc1)c1ccc(Cl)cc1Cl (stereo not given)	15.1 µM (active)
O=C(O)c1ccccc1	inactive

Note to self: AC50 recorded for "Cc1nn(C)c(Oc2ccccc2)c1C=NOCc1ccc(C(=O)OC(C)(C)C)cc1" was 6.6 µM (active)

###

System: zebrafish Estrogen Receptor (ESR2A), gene 317734
PROCEDURE SUMMARY: ATG_zfER2a_XSP1: Attagene TRANS-FACTORIAL Multi-Species (XSP1) HepG2 Assay for zebrafish Estrogen Receptor (ESR2A) (AID 2283778)
Records with an inconclusive call do not appear. Calls of active or inactive are those of the source. The calls were made as follows: active = hit-call score of the fitted dose curve at least 0.9, where 1 is the maximum; inconclusive = response in the unintended direction; inactive = score below 0.9.
READOUT: AC50

COMPOUND	AC50
CCCCC(CC)CN1C(=O)C2C3C=CC(C3)C2C1=O (stereo unspecified)	inactive
O=C(c1ccc(O)cc1O)c1ccc(O)cc1O	0.191 µM (active)
C=CCOC(Cn1ccnc1)c1ccc(Cl)cc1Cl (stereo unspecified)	inactive
CCCCC(CC)COC(=O)c1ccccc1C(=O)O (stereo unspecified)	inactive
CC1(C)C(C=C(Cl)Cl)C1C(=O)OCc1cccc(Oc2ccccc2)c1 (stereo unspecified)	inactive

AC50 on zebrafish Estrogen Receptor (ESR2A), gene 317734 for "CC(C)CCCCCCc1ccc(O)cc1" is inactive

###

Read-out: Thrombomodulin, THBD (gene 7056)
PROCEDURE SUMMARY: BSK_3C_Thrombomodulin: BioMAP Diversity Plus: 3C Assay for Thrombomodulin Biomarker Activity (AID 2283029)
TEST CONDITIONS: primary human endothelial cells (HUVEC); actives raise or lower the signal
Procedure: BSK_3C is a cell-based, multiplexed-readout assay that uses umbilical vein endothelium, a human vascular primary cell, with measurements taken at 24 hours after chemical dosing in a 96-well plate.BSK_3C_Thrombomodulin is an assay component measured in the BSK_3C assay. It measures Thrombomodulin antibody related to regulation of gene expression using ELISA technology.Data from the assay component BSK_3C_Thrombomodulin was analyzed into 1 assay endpoint. […]
Active and inactive are the calls of the source. The calls were made as follows: active = hit-call score of the fitted dose curve at least 0.9, where 1 is the maximum; inactive = score below 0.9.
Output constraint: value belongs to active, inactive

Check the results log: what was the call for "Cc1nn(C)c(Oc2ccccc2)c1C=NOCc1ccc(C(=O)OC(C)(C)C)cc1" ?
active

Check the results log: what was the call for C[C@]12CC[C@@H]3c4ccc(O)cc4C[C@@H](CCCCCCCCCS(=O)CCCC(F)(F)C(F)(F)F)[C@H]3[C@@H]1CC[C@@H]2O (stereo not given in full) ?
inactive

Check the results log: what was the call for "c1ccc2[nH]c(-c3cscn3)nc2c1" ?
inactive

Check the results log: what was the call for "O=C(c1ccccc1)C1CCCCC1" ?
inactive

Check the results log: what was the call for "C[C@]12C[C@H](O)[C@H]3[C@@H](CCC4=CC(=O)CC[C@@]43C)[C@@H]1CC[C@@H]2C(=O)CO" ?
inactive

Check the results log: what was the call for "CC(C)(C)[C@@H](O)[C@@H](Cc1ccc(Cl)cc1)n1cncn1" ?
inactive

Check the results log: what was the call for "O=C(O)C1(C(=O)Nc2ccc(Cl)cc2Cl)CC1" ?
inactive

Check the results log: what was the call for "COC(=O)c1c(Cl)nn(C)c1S(=O)(=O)NC(=O)Nc1nc(OC)cc(OC)n1" ?
inactive

Check the results log: what was the call for "CN(C)C(=O)Nc1ccc(Cl)c(Cl)c1" ?
inactive

Check the results log: what was the call for CCCCC(CC)COC(=O)c1ccccc1C(=O)O (stereo not given) ?
inactive

###

Read-out: Interleukin-6 (IL6), IL6 (gene 3569)
PROCEDURE SUMMARY: BSK_CASM3C_IL6: BioMAP Diversity Plus: CASM3C Assay for Interleukin-6 (IL6) Biomarker Activity for (AID 2283040)
TEST CONDITIONS: primary human coronary artery smooth muscle cells; actives raise or lower the signal
Calls of active or inactive are those of the source. Rule for the calls: active = hit-call score of the fitted dose curve at least 0.9, where 1 is the maximum; inactive = score below 0.9.
Output constraint: value belongs to active, inactive

Check the results log: what was the call for "S=C(S)NCCNC(=S)S.[Mn+2].[S-]C([S-])=NCCN=C([S-])[S-].[Zn+2]" ?
inactive

Check the results log: what was the call for C=CCOC(Cn1ccnc1)c1ccc(Cl)cc1Cl (centres undefined) ?
inactive

Check the results log: what was the call for "O=C(c1ccc(O)cc1O)c1ccc(O)cc1O" ?
inactive

Check the results log: what was the call for "COCCO" ?
inactive

Check the results log: what was the call for "O=C(O)C1(C(=O)Nc2ccc(Cl)cc2Cl)CC1" ?
inactive

Check the results log: what was the call for "COc1nc(C)nc(NC(=O)NS(=O)(=O)c2ccccc2OCCCl)n1" ?
inactive

Check the results log: what was the call for "CSC(=O)c1cccc2nnsc12" ?
inactive

Check the results log: what was the call for "CCOC(=O)NCCOc1ccc(Oc2ccccc2)cc1" ?
inactive

Check the results log: what was the call for C[C@]12CC[C@@H]3c4ccc(O)cc4C[C@@H](CCCCCCCCCS(=O)CCCC(F)(F)C(F)(F)F)[C@H]3[C@@H]1CC[C@@H]2O (some centres undefined) ?
inactive

Check the results log: what was the call for "CCNc1nc(N)nc(Cl)n1" ?
inactive

Check the results log: what was the call for CCC(O)=C1C(=O)CC(C(=O)O)CC1=O (centres undefined) ?
inactive

Check the results log: what was the call for "C#CCOC(=O)[C@@H](C)Oc1ccc(Oc2ncc(Cl)cc2F)cc1" ?
inactive

Check the results log: what was the call for "CCCCOCCOCCOCc1cc2c(cc1CCC)OCO2" ?
inactive

Check the results log: what was the call for CCCCOC(=O)C(C)Oc1ccc(Oc2ccc(C(F)(F)F)cn2)cc1 (centres undefined) ?
inactive

Check the results log: what was the call for "O=C(Nc1ccc([N+](=O)[O-])cc1Cl)c1cc(Cl)ccc1O" ?
active

Check the results log: what was the call for CCCCC(CC)COC(=O)c1ccccc1C(=O)O (centres undefined) ?
inactive

Check the results log: what was the call for CCC(C)OC(=O)N1CCCCC1CCO (centres undefined) ?
inactive

Check the results log: what was the call for "COC(=O)c1ccccc1S(=O)(=O)NC(=O)Nc1nc(OC(F)F)cc(OC(F)F)n1" ?
inactive

Check the results log: what was the call for "Cc1nn(C)c(Oc2ccccc2)c1C=NOCc1ccc(C(=O)OC(C)(C)C)cc1" ?
inactive
